- PROTOCOL NOTES: Caco-2 intestinal permeability
- Type: in vitro ADME, human
- ASSAY CONTEXT: human, Caco-2; B→A, 10 μM, 60 min, pH 7.4
Provide the recorded Papp B→A at 60 min, 10 μM for the entries that follow.
One number for each entry, in ×10⁻⁶ cm/s.

COMPOUND	MEASURE	OBS VALUE
COc1cc(C(=O)c2cc(C)cc(C)c2)cc([N+](=O)[O-])c1O	Papp B→A at 60 min, 10 μM	23.1
COc1cc(C(=O)c2ccc(C)cc2C)cc([N+](=O)[O-])c1O	Papp B→A at 60 min, 10 μM	26.8
Cc1ccc(C(=O)c2cc(O)c(O)c([N+](=O)[O-])c2)cc1	Papp B→A at 60 min, 10 μM	20.6
COc1cc(C(=O)c2ccc(C)cc2)cc([N+](=O)[O-])c1O	Papp B→A at 60 min, 10 μM	24.3

I'd like to know its Papp B→A at 60 min, 10 μM. The compound in question is C[C@H]1O[C@@H](O[C@H]2[C@@H](O)C[C@H](O[C@H]3[C@@H](O)C[C@H](O[C@H]4CC[C@@]5(C)[C@H](CC[C@@H]6[C@@H]5C[C@@H](O)[C@]5(C)[C@@H](C7=CC(=O)OC7)CC[C@]65O)C4)O[C@@H]3C)O[C@@H]2C)C[C@H](O)[C@@H]1O [Digoxin, reference compound] 14.1
